PROTOCOL_TEXT: chemical genetic growth profiling, strain panel (AID 1159580);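 further: tested at 20 µM; growth read once vehicle control cultures reached saturation at 30 °C; lower values mean less growth of the strain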
CONDITION_SET: S. cerevisiae deletion strains, growth OD, locus YNL307C, strain MCK1 (second series), active compounds read low
The campaign covered roughly 5,500 compounds. About 2,000 (36%) were called active. Roughly 18% stayed inconclusive and do not appear here. Some of the results follow.
Lab note: cut-off is 0.9. Strictly less in normalized growth is True. Exactly 0.9 or more is False.

[[record]]
compound = "O=[N+]([O-])/C=C/c1ccc(F)cc1"
classification = "True"

[[record]]
compound = "N#CCC(=O)NNC(=S)Nc1ccc(Cl)c(Cl)c1"
classification = "False"

[[record]]
compound = "FC(F)(F)c1cccc(NNC(=S)Nc2ccccc2)c1"
classification = "True"

[[record]]
compound = "O=S(=O)(N/N=C\\c1ccc(Cl)cc1)c1ccc(-c2ccccn2)s1"
classification = "False"

[[record]]
compound = "O=C(c1ccccc1)c1cc(Cl)ccc1NC(=S)Nc1ccc(F)cc1"
classification = "False"

[[record]]
compound = "CCOC(=O)C1=C(N)OC2=C(C(=O)CC(C)(C)C2)C1c1ccc(Cl)cc1Cl (configuration not stated)"
classification = "False"

[[record]]
compound = "O=C(NCCSCc1cccc(C(F)(F)F)c1)Nc1cccc(C(F)(F)F)c1"
classification = "False"

[[record]]
compound = "CCOc1ccc(/C=C(\\C)[N+](=O)[O-])cc1OC"
classification = "True"

[[record]]
compound = "Cc1cccc(Cl)c1/C=N\\NC(N)=S"
classification = "True"

[[record]]
compound = "FC(F)(F)c1cccc(NC(=S)Nc2csc(C(F)(F)F)c2-c2ccccc2)c1"
classification = "False"


----------
PROTOCOL_TEXT: chemical genetic growth profiling, strain panel (AID 1159580);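 further: tested at 20 µM; growth read once vehicle control cultures reached saturation at 30 °C; lower values mean less growth of the strain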
CONDITION_SET: S. cerevisiae deletion strains, growth OD, locus YOR144C, strain elg1
The campaign covered roughly 5,500 compounds. About 2,000 (36%) were called active. About 18% were inconclusive and are not listed. Rule as the data show it: active = normalized growth mostly below about 0.91 (no sharp cut-off); inconclusive = no clear call, values can overlap the other calls; inactive = mostly above about 0.92. This is one part of the list.
Outcomes: active, inactive

[[record]]
compound = "C1CNCCN1"
classification = "inactive"

[[record]]
compound = "O=C1CCCC2C3CC(CN12)[C@@H]1CCCCN1C3 (stereo partly specified)"
classification = "inactive"

[[record]]
compound = "CC(C)(C)NCC(O)c1ccccc1Cl (stereo unspecified)"
classification = "inactive"

[[record]]
compound = "Oc1c(I)cc(I)c2cccnc12"
classification = "active"

[[record]]
compound = "C/C=C/c1ccc2c(c1)OCO2"
classification = "inactive"

[[record]]
compound = "CCN(CC)CCNC(=O)c1cc(S(C)(=O)=O)ccc1OC"
classification = "inactive"

[[record]]
compound = "O=C(O)c1cccnc1Nc1cccc(C(F)(F)F)c1"
classification = "inactive"

[[record]]
compound = "C[C@H]1[C@H]2CCC3C4CC=C5C[C@@H](N(C)C)CC[C@]5(C)C4CC[C@@]32CN1C (stereo partly specified)"
classification = "inactive"

[[record]]
compound = "COc1cc2c(c(OC)c1OC)-c1ccc(O)c(=O)cc1[C@@H](NC(C)=O)CC2"
classification = "inactive"

[[record]]
compound = "O=C(O)CCCCC1CCSS1 (stereo unspecified)"
classification = "inactive"

[[record]]
compound = "C1CCN2CC3CC(CN4CCCCC34)C2C1 (stereo unspecified)"
classification = "inactive"

[[record]]
compound = "C=CC(C1=CC(=O)C(OC)=CC1=O)c1ccccc1 (stereo unspecified)"
classification = "inactive"

[[record]]
compound = "CC(C)N(C(=O)SCC(Cl)=C(Cl)Cl)C(C)C"
classification = "inactive"

[[record]]
compound = "CC(=O)Oc1ccc(Cl)c2cccnc12"
classification = "active"

[[record]]
compound = "CC(=O)c1c(O)c(C)c(O)c2c1OC1=CC(=O)C(C(C)=O)C(=O)C12C (stereo unspecified)"
classification = "active"

[[record]]
compound = "COc1c2c(cc3c1OCO3)CCN(C)C2"
classification = "inactive"

[[record]]
compound = "OC[C@@H]1CCCN2CCCC[C@H]12"
classification = "inactive"

[[record]]
compound = "C=CC(C1=CC(=O)C=CC1=O)c1ccccc1 (stereo unspecified)"
classification = "inactive"

[[record]]
compound = "c1ccc2c(c1)cc1ccc3cccc4ccc2c1c34"
classification = "inactive"

[[record]]
compound = "Cc1ccc2cc3c(ccc4ccccc43)c3c2c1CC3"
classification = "inactive"

[[record]]
compound = "COC(C)(C)CCC[C@H](C)C/C=C/C(C)=C/C(=O)OC(C)C"
classification = "inactive"

